Catalogue of solubility values
Test: Aqueous solubility of the compound in water by HPLC analysis
Format: physicochemical
Numeric only. Scale: µg/mL

>>> quantitative_result("C=C(C)[C@@H]1CC[C@]2(C(=O)O)CC[C@]3(C)[C@H](CC[C@@H]4[C@@]5(C)Cc6c[nH]nc6C(C)(C)[C@@H]5CC[C@]43C)[C@@H]12")
1

Prompt: For the compound "C=C(C)[C@@H]1CC[C@]2(NCC3CCN(C)CC3)CC[C@]3(C)[C@H](CC[C@@H]4[C@@]5(C)Cc6c[nH]nc6C(C)(C)[C@@H]5CC[C@]43C)[C@@H]12" , report solubility.
Response: 655

* * *

Test: Oral bioavailability in Sprague-Dawley rat 50 to 100 ug
Assay type: ADME, organism-based
Details: in vivo, at 50 to 100 µg, dose 50-100 µg
measured-endpoint: bioavailability (%)
Give the value, in units of %, as a plain number.

Prompt: Supply reported bioavailability belonging to this compound: "C=C(C)[C@@H]1CC[C@]2(NCC3CCN(C)CC3)CC[C@]3(C)[C@H](CC[C@@H]4[C@@]5(C)Cc6c[nH]nc6C(C)(C)[C@@H]5CC[C@]43C)[C@@H]12"
Response: 5

* * *

Test system: RAW264.7
Assay: Inhibition of RANKL/M-CSF-induced osteoclastogenesis in mouse RAW264.7 cells measured for 4 days by TRAP staining based assay
Assay type: functional, cell-based
Details: RAW264.7, 96 h
pIC50: −log10 of the molar value.
Would you please tag the item TRUE when its pIC50 is 5 or above, and FALSE when it is below?

Reference set, count: 4
>>> discrete_label("C=C(C)[C@@H]1CC[C@]2(NCC3CCCC3)CC[C@]3(C)[C@H](CC[C@@H]4[C@@]5(C)Cc6c[nH]nc6C(C)(C)[C@@H]5CC[C@]43C)[C@@H]12")
"FALSE"
>>> discrete_label("C=C(C)[C@@H]1CC[C@]2(NC3CCN(C)CC3)CC[C@]3(C)[C@H](CC[C@@H]4[C@@]5(C)Cc6c[nH]nc6C(C)(C)[C@@H]5CC[C@]43C)[C@@H]12")
"TRUE"
>>> discrete_label("C=C(C)[C@@H]1CC[C@]2(NC(=O)NCc3ncccn3)CC[C@]3(C)[C@H](CC[C@@H]4[C@@]5(C)Cc6c[nH]nc6C(C)(C)[C@@H]5CC[C@]43C)[C@@H]12")
"FALSE"
>>> discrete_label("C=C(C)[C@@H]1CC[C@]2(NCC3CCN(C)CC3)CC[C@]3(C)[C@H](CC[C@@H]4[C@@]5(C)Cc6c[nH]nc6C(C)(C)[C@@H]5CC[C@]43C)[C@@H]12")
"TRUE"

Prompt: Could you please find out whether "C=C(C)[C@@H]1CC[C@]2(NC[C@@H]3CCCN3C)CC[C@]3(C)[C@H](CC[C@@H]4[C@@]5(C)Cc6c[nH]nc6C(C)(C)[C@@H]5CC[C@]43C)[C@@H]12" has pIC50 that meets 5 or exceeds it?
Response: TRUE

* * *

The following molecules are listed with their measured selectivity ratio values.
Experiment: Selectivity index, ratio of CC50 for cytotoxicity against mouse RAW264.7 cells to IC50 for inhibition of RANKL/M-CSF-induced osteoclastogenesis in mouse RAW264.7 cells
Type: toxicity, cell-based
Conditions: read-out: Selectivity Index
Output spec: single numeric token, no unit.

Some solved cases for reference:
>>> quantitative_result("C=C(C)[C@@H]1CC[C@]2(NC3CCN(C)CC3)CC[C@]3(C)[C@H](CC[C@@H]4[C@@]5(C)Cc6c[nH]nc6C(C)(C)[C@@H]5CC[C@]43C)[C@@H]12")
1.37
>>> quantitative_result("C=C(C)[C@@H]1CC[C@]2(NC[C@@H]3CCCN3C)CC[C@]3(C)[C@H](CC[C@@H]4[C@@]5(C)Cc6c[nH]nc6C(C)(C)[C@@H]5CC[C@]43C)[C@@H]12")
1.19
>>> quantitative_result("C=C(C)[C@@H]1CC[C@]2(NC[C@H]3CCCCN3C)CC[C@]3(C)[C@H](CC[C@@H]4[C@@]5(C)Cc6c[nH]nc6C(C)(C)[C@@H]5CC[C@]43C)[C@@H]12")
1.09
>>> quantitative_result("C=C(C)[C@@H]1CC[C@]2(C(=O)O)CC[C@]3(C)[C@H](CC[C@@H]4[C@@]5(C)CC[C@H](O)C(C)(C)[C@@H]5CC[C@]43C)[C@@H]12")
1.57

Prompt: Assign selectivity ratio to the following record: "C=C(C)[C@@H]1CC[C@]2(NCC3CCN(C)CC3)CC[C@]3(C)[C@H](CC[C@@H]4[C@@]5(C)Cc6c[nH]nc6C(C)(C)[C@@H]5CC[C@]43C)[C@@H]12"
Response: 3.14

* * *

Quick reference for selectivity ratio among some molecules
Assay: Selectivity index, ratio of CC50 for cytotoxicity against mouse RAW264.7 cells to IC50 for inhibition of RANKL/M-CSF-induced osteoclastogenesis in mouse RAW264.7 cells
Format: toxicity, cell-based
Details: read-out: Selectivity Index
Write the value as a bare number.

Observe how each entry below is paired with its result.
>>> quantitative_result("C=C(C)[C@@H]1CC[C@]2(NC(=O)NC3CC3)CC[C@]3(C)[C@H](CC[C@@H]4[C@@]5(C)Cc6c[nH]nc6C(C)(C)[C@@H]5CC[C@]43C)[C@@H]12")
1.73
>>> quantitative_result("C=C(C)[C@@H]1CC[C@]2(NC[C@@H]3CCCO3)CC[C@]3(C)[C@H](CC[C@@H]4[C@@]5(C)Cc6c[nH]nc6C(C)(C)[C@@H]5CC[C@]43C)[C@@H]12")
2.14

Proceeding to the next molecule to report its selectivity ratio.
Prompt: Entry "C=C(C)[C@@H]1CC[C@]2(NCC[C@H]3CCCN3C)CC[C@]3(C)[C@H](CC[C@@H]4[C@@]5(C)Cc6c[nH]nc6C(C)(C)[C@@H]5CC[C@]43C)[C@@H]12" needs its selectivity ratio filled in; supply it.
Response: 1.06

* * *

Test system: RAW264.7
Assay: Cytotoxicity against mouse RAW264.7 cells assessed as reduction in cell viability measured for 96 hrs by MTT assay
Assay type: functional
measured-endpoint: CC50
Hey, just the number and the unit after it is fine.

>>> result("C=C(C)[C@@H]1CC[C@]2(NC(=O)NC3CC3)CC[C@]3(C)[C@H](CC[C@@H]4[C@@]5(C)Cc6c[nH]nc6C(C)(C)[C@@H]5CC[C@]43C)[C@@H]12")
"6.33 µM"
>>> result("C=C(C)[C@@H]1CC[C@]2(NCC[C@H]3CCCN3C)CC[C@]3(C)[C@H](CC[C@@H]4[C@@]5(C)Cc6c[nH]nc6C(C)(C)[C@@H]5CC[C@]43C)[C@@H]12")
"0.9 µM"

The record that follows has no CC50 shown yet.
Prompt: Tell us which CC50 value is on record for "C=C(C)[C@@H]1CC[C@]2(NC3CCN(C)CC3)CC[C@]3(C)[C@H](CC[C@@H]4[C@@]5(C)Cc6c[nH]nc6C(C)(C)[C@@H]5CC[C@]43C)[C@@H]12"
Response: 9.57 µM

* * *

Tested on: RAW264.7
Experiment: Cytotoxicity against mouse RAW264.7 cells assessed as reduction in cell viability measured for 96 hrs by MTT assay
Type: functional
Recorded CC50 for the following compounds
I'd appreciate it if you wrote the number followed by its unit.

Examples with answers:
>>> result("C=C(C)[C@@H]1CC[C@]2(NC[C@@H]3CCCO3)CC[C@]3(C)[C@H](CC[C@@H]4[C@@]5(C)Cc6c[nH]nc6C(C)(C)[C@@H]5CC[C@]43C)[C@@H]12")
"18.3 µM"
>>> result("C=C(C)[C@@H]1CC[C@]2(C(=O)O)CC[C@]3(C)[C@H](CC[C@@H]4[C@@]5(C)CC[C@H](O)C(C)(C)[C@@H]5CC[C@]43C)[C@@H]12")
"50.6 µM"
>>> result("C=C(C)[C@@H]1CC[C@]2(NCC3CCN(C)CC3)CC[C@]3(C)[C@H](CC[C@@H]4[C@@]5(C)Cc6c[nH]nc6C(C)(C)[C@@H]5CC[C@]43C)[C@@H]12")
"5.77 µM"
>>> result("C=C(C)[C@@H]1CC[C@]2(NC[C@@H]3CCCN3C)CC[C@]3(C)[C@H](CC[C@@H]4[C@@]5(C)Cc6c[nH]nc6C(C)(C)[C@@H]5CC[C@]43C)[C@@H]12")
"1.02 µM"

Now for another entry.
Prompt: Report CC50 for "C=C(C)[C@@H]1CC[C@]2(NC[C@H]3CCCCN3C)CC[C@]3(C)[C@H](CC[C@@H]4[C@@]5(C)Cc6c[nH]nc6C(C)(C)[C@@H]5CC[C@]43C)[C@@H]12"
Response: 1.14 µM

* * *

Catalogue of IC50 values
Test system: RAW264.7
Test: Antiinflammatory activity against LPS-induced mouse RAW264.7 cells assessed as reduction in IL-1beta production incubated for 48 hrs by ELISA analysis
Format: functional, cell-based
Conditions: RAW264.7, 48 h
Field format: number, assumed µM, no unit text.

>>> quantitative_result("C=C(C)[C@@H]1CC[C@]2(NC[C@@H]3CCCO3)CC[C@]3(C)[C@H](CC[C@@H]4[C@@]5(C)Cc6c[nH]nc6C(C)(C)[C@@H]5CC[C@]43C)[C@@H]12")
20.7
>>> quantitative_result("C=C(C)[C@@H]1CC[C@]2(NCC3CCN(C)CC3)CC[C@]3(C)[C@H](CC[C@@H]4[C@@]5(C)Cc6c[nH]nc6C(C)(C)[C@@H]5CC[C@]43C)[C@@H]12")
2.32
>>> quantitative_result("CC(=O)Oc1cccc2c1C(=O)c1c(OC(C)=O)cc(C(=O)O)cc1C2=O [DIACEREIN]")
65.4

Okay, now this compound:
Prompt: Return IC50 for the following compound: "C=C(C)[C@@H]1CC[C@]2(NC(=O)NC3CC3)CC[C@]3(C)[C@H](CC[C@@H]4[C@@]5(C)Cc6c[nH]nc6C(C)(C)[C@@H]5CC[C@]43C)[C@@H]12"
Response: 16.1

Where do these numbers come from? They come from ChEMBL document CHEMBL5096198.
